meta.source: paper PMC5789975

system: planktonic S. aureus MRSA (SAP0017); assay: MIC determination, broth microdilution; type: cell-based, Staphylococcus aureus; settings: Mueller Hinton Broth, broth microdilution, ~5 × 10^5 CFU/ml, 37 °C overnight, visual read; mean of three biological replicates
Ends that are not written are not given here.
recorded.metric: MIC, MHB (µM)
Respond with the bare value in µM.

Solved cases below.
| substance | MIC, MHB, µM |
| --- | --- |
| IQRWWKVWLKVI-NH2 [compound 3004, QSAR–predicted antibiofilm peptide, >95% purity, C-terminally amidated] | 4 |
| IWLRLKVVLKRK-NH2 [compound 3006, QSAR–predicted antibiofilm peptide, >95% purity, C-terminally amidated] | 4 |
| RRQWRGWVRIWL-NH2 [compound 3005, QSAR–predicted antibiofilm peptide, >95% purity, C-terminally amidated] | 4 |

Please find the next substance below.
Query :: Please report the measured MIC, MHB for VIKWLLKILRAI-NH2 [compound 3001, QSAR–predicted antibiofilm peptide, >95% purity, C-terminally amidated]
Result :: 1

----------
Parameter: MIC, MHB. Scope: all listed entries.
tested on: planktonic S. aureus MRSA (SAP0017); assay: MIC determination, broth microdilution; format: cell-based, Staphylococcus aureus; conditions: Mueller Hinton Broth, broth microdilution, ~5 × 10^5 CFU/ml, 37 °C overnight, visual read; mean of three biological replicates
Ends that are not written are not given here.
Respond with the bare value in µM.

| substance | MIC, MHB [µM] |
| --- | --- |
| ILVRWIRWRIQW-NH2 [compound 3002, QSAR–predicted antibiofilm peptide, >95% purity, C-terminally amidated] | 2 |

Query :: Please tell me the measured MIC, MHB for WKKVQWLKRLLL-NH2 [compound 3003, QSAR–predicted antibiofilm peptide, >95% purity, C-terminally amidated] ; system: planktonic S. aureus MRSA (SAP0017).
Result :: 4

Query :: Please tell me the measured MIC, MHB for VRLIVAVRIWRR-NH2 [compound 1018, synthetic immunomodulatory cationic peptide, 12-residue derivative of bovine bactenecin; parent template, reference compound] ; system: planktonic S. aureus MRSA (SAP0017).
Result :: 4

Query :: Please tell me the measured MIC, MHB for VLKIKVKIWVVK-NH2 [compound 3007, QSAR–predicted antibiofilm peptide, >95% purity, C-terminally amidated] ; system: planktonic S. aureus MRSA (SAP0017).
Result :: 16
